TEST_TARGET: NHE (Homo sapiens, UniProt P48764)
Sequence (P48764 26-834): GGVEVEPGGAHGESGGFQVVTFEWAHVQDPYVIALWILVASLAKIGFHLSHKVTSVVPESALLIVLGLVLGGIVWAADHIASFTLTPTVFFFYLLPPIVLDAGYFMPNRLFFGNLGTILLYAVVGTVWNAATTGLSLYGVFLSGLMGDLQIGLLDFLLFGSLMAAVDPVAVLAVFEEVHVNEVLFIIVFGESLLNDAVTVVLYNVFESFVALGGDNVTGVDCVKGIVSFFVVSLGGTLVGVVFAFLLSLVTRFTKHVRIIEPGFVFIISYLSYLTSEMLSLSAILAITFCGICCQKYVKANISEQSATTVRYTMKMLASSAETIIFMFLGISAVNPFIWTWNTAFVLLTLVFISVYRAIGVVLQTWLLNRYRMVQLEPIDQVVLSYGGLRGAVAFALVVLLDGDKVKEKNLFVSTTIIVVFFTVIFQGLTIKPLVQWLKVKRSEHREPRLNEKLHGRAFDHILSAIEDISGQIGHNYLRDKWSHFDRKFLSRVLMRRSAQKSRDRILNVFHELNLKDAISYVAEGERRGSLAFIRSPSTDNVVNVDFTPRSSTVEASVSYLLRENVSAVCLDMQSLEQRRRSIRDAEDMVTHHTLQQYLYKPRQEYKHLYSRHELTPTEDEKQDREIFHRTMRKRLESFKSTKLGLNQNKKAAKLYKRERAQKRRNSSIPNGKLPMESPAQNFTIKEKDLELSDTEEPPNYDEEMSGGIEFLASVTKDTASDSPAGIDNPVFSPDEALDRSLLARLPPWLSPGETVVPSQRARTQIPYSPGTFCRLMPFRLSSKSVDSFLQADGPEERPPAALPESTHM
EXPERIMENT_DESCRIPTION: recovery of intracellular pH in LAP1 cells expressing NHE (FLIPR, BCECF)
RUN_CONDITIONS: LAP1 cells stably expressing NHE, pH recovery after acidification
Structures can show the parent of a compound that is named as a salt.
ENDPOINT_LABEL: pIC50
Bear in mind: pIC50 is minus log10 of a mol/L concentration; give just that figure.

Prompt: Tell me pIC50 reported for CN1Cc2c(Cl)cc(Cl)cc2C(c2ccc(S(=O)(=O)N=C(N)N)cc2)C1 (stereo not shown) [Example 1, dihydrochloride]
Completion: 7.46
